assaySummary: Microsomal stability assay, human
Format: in vitro ADME
assaySetup: human microsomes, read-out: Microsomal Stability (T1/2 min) Human
observationType: half-life

Input line: Recorded half-life for `CC(C)c1ccc2c(c1)C(c1ccc(F)cc1)=C(C(=O)N1CCN(C)CC1)CO2` , please?
Output line: < 10 min

Input line: Recorded half-life for `CCNCC1=C(c2ccc(F)cc2)c2cc(OC(F)F)ccc2OC1` , please?
Output line: > 30 min

Input line: Recorded half-life for `CN1CCN(C(=O)C2=C(c3ccc(F)cc3)c3cc(OC4CC4)ccc3OC2)CC1` , please?
Output line: < 10 min

Input line: Recorded half-life for `COc1ccc2c(c1)C(c1ccc(C#N)cc1)=C(CN1CCCC1)CO2` , please?
Output line: 10 to 30 min

Input line: Recorded half-life for `O=C(O)CCOc1ccc2c(c1)C(c1ccc(F)cc1)=C(C(=O)N1CCCC1)CO2` , please?
Output line: > 30 min

Input line: Recorded half-life for `CN1CCN(C(=O)C2=C(c3ccc(F)cc3)c3cc(C(F)(F)F)ccc3OC2)CC1` , please?
Output line: 10 to 30 min

Input line: Recorded half-life for `COc1ccc2c(c1)C(c1cccc(F)c1)=C(C(=O)N1CCN(C)CC1)CO2` , please?
Output line: 10 to 30 min

Input line: Recorded half-life for `CC(C)(O)CCOc1ccc2c(c1)C(c1ccc(F)cc1)=C(CN1CCCC1)CO2` , please?
Output line: > 30 min

----------
assaySummary: Microsomal stability assay, mouse
Assay type: in vitro ADME
assaySetup: mouse microsomes, read-out: Microsomal Stability (T1/2 min) Mouse
observationType: half-life

Input line: Recorded half-life for `CC(C)c1ccc2c(c1)C(c1ccc(F)cc1)=C(C(=O)N1CCN(C)CC1)CO2` , please?
Output line: < 10 min

Input line: Recorded half-life for `CN(C)CCNC(=O)C1=C(c2ccc(F)cc2)c2cc(OC(F)F)ccc2OC1` , please?
Output line: 10 to 30 min

Input line: Recorded half-life for `O=C(C1=C(c2ccc(F)cc2)c2cc(OC(F)F)ccc2OC1)N1CCCC1` , please?
Output line: < 10 min

Input line: Recorded half-life for `Fc1ccc(C2=C(CN3CCOCC3)COc3ccc(OC(F)F)cc32)cc1` , please?
Output line: 10 to 30 min

Input line: Recorded half-life for `Fc1ccc(C2=C(CN3CCCC3)COc3ccc(C(F)(F)F)cc32)cc1` , please?
Output line: > 30 min

Input line: Recorded half-life for `CN1CCN(CCOc2ccc3c(c2)C(c2ccc(F)cc2)=C(C(=O)N2CCCC2)CO3)CC1` , please?
Output line: < 10 min

Input line: Recorded half-life for `CCNCC1=C(c2ccc(F)cc2)c2cc(OC(F)F)ccc2OC1` , please?
Output line: > 30 min

Input line: Recorded half-life for `Fc1ccc(C2=C(CN3CCCC3)COc3ccc(F)cc32)cc1` , please?
Output line: 10 to 30 min

Input line: Recorded half-life for `O=c1[nH]c(CCOc2ccc3c(c2)C(c2ccc(F)cc2)=C(CN2CCCC2)CO3)no1` , please?
Output line: > 30 min

Input line: Recorded half-life for `COc1ccc2c(c1)C(c1ccc(C(F)(F)F)cc1)=C(CN1CCCC1)CO2` , please?
Output line: < 10 min

Input line: Recorded half-life for `COc1ccc2c(c1)C(c1ccc(Cl)cc1)=C(CN1CCCC1)CO2` , please?
Output line: < 10 min

Input line: Recorded half-life for `Fc1ccc(C2=C(CN3CCCC3)COc3ccc(OCCN4CCCCC4)cc32)cc1` , please?
Output line: > 30 min
